Data provenance is ChEMBL document CHEMBL1955720.

# target: NAD(P)H dehydrogenase [quinone] 1 (Mus musculus)
# test method notes: Induction of QR1 in mouse Hepa-1c1c7 cells assessed as induction ratio at 50 uM by MTT assay
# Type: cell-based
readout kind: Ratio

Example entries begin here.
INSERT INTO measurements (mol, readout_kind, experimental_result) VALUES
  ('Brc1ccc(-c2csc(-c3ccncc3)n2)cn1', 'Ratio', 1.5),
  ('CCOc1ccc(-c2csc(-c3ccncc3)n2)cn1', 'Ratio', 1.1),
  ('Oc1ccc(-c2nc(-c3cccnc3)cs2)cc1', 'Ratio', 0.87),
  ('Brc1ccc(-c2csc(-c3cccnc3)n2)cn1', 'Ratio', 5.1),
  ('c1ccc(-c2nc(-c3cccnc3)cs2)cc1', 'Ratio', 1.45);

A. COc1ccc(-c2nc(-c3cccnc3)cs2)cc1
B. Brc1ccc(-c2nc(-c3cccnc3)cs2)cc1
C. Brc1cccc(-c2nc(-c3cccnc3)ns2)c1
D. COc1cc(-c2nc(-c3cccnc3)cs2)ccn1
Enquiry: Please list these compounds in decreasing order of Ratio. Kindly provide the labels arranged according to the requested ordering.
Return: C, B, A, D
